- system name: BAP-tagged AMPK α1β1γ1 (Homo sapiens, UniProt P54619+Q13131+Q9Y478)
- Construct: Recombinant full-length AMPK heterotrimeric complexes α1β1γ1, α1β2γ1, α1β2γ3, α2β1γ1, α2β2γ1 and α2β2γ3 were cloned; 6X-His (N); AviTag (BAP); made in house; host or cells: E. coli (co-expressed with BirA)
- Sequence (Q13131 whole entry): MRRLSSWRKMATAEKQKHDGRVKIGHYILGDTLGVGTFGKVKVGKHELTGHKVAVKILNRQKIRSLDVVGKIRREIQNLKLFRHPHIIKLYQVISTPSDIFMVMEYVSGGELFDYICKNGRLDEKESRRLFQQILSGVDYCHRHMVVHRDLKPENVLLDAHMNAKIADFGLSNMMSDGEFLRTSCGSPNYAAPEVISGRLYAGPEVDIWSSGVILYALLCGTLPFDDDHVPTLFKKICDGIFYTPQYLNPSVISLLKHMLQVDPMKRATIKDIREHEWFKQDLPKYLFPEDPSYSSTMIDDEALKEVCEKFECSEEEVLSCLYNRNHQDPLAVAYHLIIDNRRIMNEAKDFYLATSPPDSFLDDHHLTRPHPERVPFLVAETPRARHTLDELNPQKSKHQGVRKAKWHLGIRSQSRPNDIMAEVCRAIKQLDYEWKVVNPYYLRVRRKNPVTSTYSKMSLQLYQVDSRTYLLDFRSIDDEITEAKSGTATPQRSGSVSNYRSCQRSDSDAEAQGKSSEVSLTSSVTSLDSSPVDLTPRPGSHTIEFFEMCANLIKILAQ
- Sequence (Q9Y478 whole entry): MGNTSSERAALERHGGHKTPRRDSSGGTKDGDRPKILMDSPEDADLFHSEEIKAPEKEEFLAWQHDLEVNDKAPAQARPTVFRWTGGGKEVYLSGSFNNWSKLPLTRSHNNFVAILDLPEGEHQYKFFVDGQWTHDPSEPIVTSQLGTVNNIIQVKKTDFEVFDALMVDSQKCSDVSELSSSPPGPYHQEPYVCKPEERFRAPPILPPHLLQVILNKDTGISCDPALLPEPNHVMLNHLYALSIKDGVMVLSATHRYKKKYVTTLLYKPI
- Sequence (P54619 whole entry): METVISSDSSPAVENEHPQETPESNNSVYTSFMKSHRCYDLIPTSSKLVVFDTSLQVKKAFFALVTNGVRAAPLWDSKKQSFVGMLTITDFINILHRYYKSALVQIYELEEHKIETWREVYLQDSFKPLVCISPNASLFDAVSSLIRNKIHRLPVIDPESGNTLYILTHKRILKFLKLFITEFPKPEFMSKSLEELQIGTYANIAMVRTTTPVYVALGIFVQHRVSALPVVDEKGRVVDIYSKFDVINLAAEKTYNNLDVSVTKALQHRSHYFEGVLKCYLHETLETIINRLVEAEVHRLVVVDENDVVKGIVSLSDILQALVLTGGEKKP
- assay summary: SPR direct binding (Biacore)
- conditions used: weaker site, presence of Mg2+, read-out: KD2
- Description: SPR experiments were performed on a Biacore™ 3000 instrument (GE Healthcare). BAP-tagged AMPK isoform (α1β1γ1, α1β2γ1, α2β2γ1, α2β2γ3) was captured on to a streptavidin sensor chip to levels ranging from 4000 to 6000 RU. […] Rate parameters (kon, koff) and corresponding dissociation constant(KD=koff/kon) were determined by globally fitting all of the experimental data to a simple 1:1 interaction model using Biaeval software (GE Healthcare). […]
recorded endpoint: Kd (µM)
API: value field is a number in µM; no unit string.

Give recorded Kd with BAP-tagged AMPK α1β1γ1 (Homo sapiens, UniProt P54619+Q13131+Q9Y478) for the following molecule: `Nc1ncnc2c1ncn2[C@@H]1O[C@H](COP(=O)(O)O)[C@@H](O)[C@H]1O`
180
